- protocol text: recombinant barcode read abundance after kanamycin selection (control-corrected) (log10(CPM+1)); higher = more efficient recombination; sequences stand for … in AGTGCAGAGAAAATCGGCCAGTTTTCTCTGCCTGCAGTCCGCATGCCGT…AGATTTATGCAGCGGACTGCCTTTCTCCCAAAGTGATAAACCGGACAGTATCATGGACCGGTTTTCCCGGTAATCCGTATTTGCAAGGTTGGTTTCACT; site = the 11-nt target;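 note: IS621 recombinase and bridge RNA in Escherichia coli cells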
In this section, each of the sequences is paired with its reported recombinant barcode read abundance (log10).

Solved entries (count: 5):
AACACTGCTTGGGTTCTAACCTGTTGCCT (site AACATTGCTAG) | 0.0625
GGGTCGGCTTGGGTTCTAACCTGTTGCGC (site GGGTCGGCTCC) | 0.0276
ACAATCTCTTGGGTTCTAACCTGTTGCTC (site CACCAGACTTG) | 0.066
TGCGCAACTTGGGTTCTAACCTGTTGCCT (site TGCGCTACTAG) | 0.0921
TACTATTCTTGGGTTCTAACCTGTTGCCT (site TACTATGCTAG) | 0.175

Input line: Recorded recombinant barcode read abundance (log10) of GTGTTTCCTTGGGTTCTAACCTGTTGCAT (site GTGTCTCCTAT) , please.
Output line: 0.081

Input line: Can you look up the measured recombinant barcode read abundance (log10) of GAGCCACCTTGGGTTCTAACCTGTTGCCT (site AAGCCACCTAG) for me?
Output line: 0.868

Input line: I have this sequence here, CGTTCTCCTTGGGTTCTAACCTGTTGCTA (site GCAAGGTCTAT) , and I need its recorded recombinant barcode read abundance (log10).
Output line: 0.0644

Input line: Data request, read-out recombinant barcode read abundance (log10), for CACTTAACTTGGGTTCTAACCTGTTGCCT (site CACTTATCTAG)
Output line: 0

Input line: # get_value(readout='recombinant barcode read abundance (log10)', item= GGAGAGTCTTGGGTTCTAACCTGTTGCCT (site GCAGAGTCTAG) )
Output line: 0.995

Input line: Any idea what recombinant barcode read abundance (log10) was measured for CCGTGGACTTGGGTTCTAACCTGTTGCCT (site CCGTGGACTAG) ?
Output line: 1.75

Input line: Form field: reported recombinant barcode read abundance (log10) of ACGGGGTCTTGGGTTCTAACCTGTTGCCT (site ACGGGGTCTAG)
Output line: 2.64

----------
Listed here are sequences together with their documented recombinant barcode read abundance (log10).
- protocol text: recombinant barcode read abundance after kanamycin selection (control-corrected) (log10(CPM+1)); higher = more efficient recombination; sequences stand for … in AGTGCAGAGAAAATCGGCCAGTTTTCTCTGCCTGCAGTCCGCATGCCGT…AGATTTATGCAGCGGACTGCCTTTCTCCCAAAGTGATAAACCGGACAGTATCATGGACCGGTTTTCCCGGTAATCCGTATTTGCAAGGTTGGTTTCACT; site = the 11-nt target
Just the number, please, no unit attached.

Look over these answered cases.
CGTAGGACTTGGGTTCTAACCTGTTGCCT (site TGTAGGACTAG) | 0.0115
GCGCATCCTTGGGTTCTAACCTGTTGCCT (site GCGAATCCTAG) | 0.719
CTCGGATCTTGGGTTCTAACCTGTTGCTC (site CTCGGATCTCA) | 0.0519

Input line: Name the reported recombinant barcode read abundance (log10) value associated with the sequence CATTGCCCTTGGGTTCTAACCTGTTGCCT (site CTTTGCCCTAG)
Output line: 0.0205

Input line: Need recombinant barcode read abundance (log10), item AAAATCTCTTGGGTTCTAACCTGTTGCCT (site AAAATCTCTAG)
Output line: 0.708

Input line: Which recombinant barcode read abundance (log10) value belongs to TATTCTCCTTGGGTTCTAACCTGTTGCAT (site TATTCTCCTAA) ?
Output line: 0.0409

Input line: State the recorded recombinant barcode read abundance (log10) for this entry: GACGTAGCTTGGGTTCTAACCTGTTGCCT (site GCCGTAGCTAG)
Output line: 0.083

Input line: // recombinant barcode read abundance (log10) lookup, key: GCCTGGGCTTGGGTTCTAACCTGTTGCCG (site GCCAGGGCTCG)
Output line: 0.0298

Input line: // returns reported recombinant barcode read abundance (log10) for input ATACTACCTTGGGTTCTAACCTGTTGCGG (site ATACTACCTCC)
Output line: 1.4

Input line: Returns the measured recombinant barcode read abundance (log10) for the input sequence. Input: CAGGACCCTTGGGTTCTAACCTGTTGCCT (site CAAGACCCTAG)
Output line: 1.93

Taken from the supplement of paper PMC11208160.
